measurement.target: NCP3, nucleosome core particle with 3xFLAG-H3Kc36me3 (X. laevis | , Kc36me3 (trimethyllysine mimic on cysteine at position 36))
assay.procedure: MST
pKd: −log10 of the molar value.

binder: PWWP domain of NSD2 (domain or fragment) VGDLVWSKVSGYPWWPCMVSADPLLHSYTKLKGQKKSARQYHVQFFGDAPERAWIFEKSLVAFEG
pKd: 5.85
